Hello, the source for this data is ChEMBL document CHEMBL1201862, in case you need it.

# GI50 listing for each entry below
Tested on: SW-620
Assay: NCI tumour cell line growth inhibition, 48 h
Activity calls are given as the source filed them. Cut-off read from the data, not from the text of the source: active = GI50 up to about 1.1 µM and inactive = higher.
MEASUREMENT_NAME: GI50

>>> test_result("COC(=O)C1=CC2C(=O)OC1C1C(=O)NC(=O)C21 (stereo unspecified)")
"> 100 µM (inactive)"
>>> test_result("COC1OC(CBr)C(OC(=O)c2ccccc2)C(O)C1Br (stereo unspecified)")
"> 100 µM (inactive)"
>>> test_result("C/C(=N\\Nc1nc2ccccc2[nH]1)c1cccc[n+]1[O-]")
"> 100 µM (inactive)"
>>> test_result("Oc1ccc(-c2cc(-c3c(O)cc(O)cc3O)on2)cc1")
"65.6 µM (inactive)"
>>> test_result("c1ccc(CCCC2Sc3cccc4cccc(c34)S2)cc1")
"> 100 µM (inactive)"
>>> test_result("COC(=O)C(Cc1nc2ccc(Cl)cc2nc1O)/C(=N/NC(N)=O)C(=O)Nc1ccc(Cl)cc1 (stereo unspecified)")
"> 100 µM (inactive)"
